TEST_DETAILS: in vivo
TEST_PARAMETERS: male, C57BL/6, mouse, ip, 60 mg/kg
ASSAY_METRIC: Cmax (µg/mL)
Number in µg/mL, nothing else.

Find the recorded Cmax belonging to O=C(O)Cc1ccccc1Nc1c(Cl)cccc1Cl and report it. 265

----------
TEST_DETAILS: in vivo
TEST_PARAMETERS: male, C57BL/6, mouse, ip, 60 mg/kg
ASSAY_METRIC: Tmax (min)
Your answer should be a plain number; it is taken to be in min.

Need Tmax, item O=C(O)Cc1ccccc1Nc1c(Cl)cccc1Cl 10

----------
TEST_DETAILS: in vivo
TEST_PARAMETERS: male, C57BL/6, mouse, ip, 60 mg/kg
ASSAY_METRIC: AUC(0-t) (µg·h/mL)
Answer with a number only, understood to be in µg·h/mL.

Param item = O=C(O)Cc1ccccc1Nc1c(Cl)cccc1Cl [Diclofenac, diclofenac] ; retrieve measured AUC(0-t). 208
